# System: MDA-MB-435 melanoma
# experiment: NCI-60 one-dose screen, 48 h (100 = growth as untreated, 0 = no growth, -100 = all killed)
# setup-conditions: 10 µM unless noted
# Description: Growth inhibition of the MDA-MB-435 human Melanoma tumor cell line is measured as a screen for anti-cancer activity. Cells are grown in 96 well plates and exposed to the test compound for 48 hours. Compounds are tested at a single concentration, which is 10^-5 M for most compounds. The reported endpoint is percent growth (GI% or GIPRCNT), where numbers from 0 - 100% represent growth inhibition, and numbers from -100% - 0 represent cell death. […]
The panel holds about 83,000 compounds, 20% with a hit somewhere; the sample as a whole holds those more often. Calls of active or inactive are those of the source. Rule for the calls: active = growth percent below 10; inactive = the rest.
Hi there, I'd appreciate the recorded growth for every entry that follows.

The observed growth for Cc1nn(-c2ccccc2)c2ncn(CC(=O)N/N=C/c3ccccc3O)c(=O)c12 when tested with MDA-MB-435 melanoma stands at 64.1% (inactive)

Record for COc1ccc(N=Nc2c(N)nn3c(-c4ccc5c(c4)C=S=C5)ccnc23)cc1 under target or system MDA-MB-435 melanoma: growth reported as 83.8% (inactive)

MDA-MB-435 melanoma growth of COc1ccc(-c2cc(C)nc3[nH]c(=O)sc23)cc1 is 78.7% (inactive)

Measured growth (MDA-MB-435 melanoma), entry CCC1(OC(=O)c2ccccc2SSCCOC(=O)CCCCC2SCC3NC(=O)NC32)C(=O)OCc2c1cc1n(c2=O)Cc2cc3ccccc3nc2-1 (stereo unspecified) : 70.1% (inactive)

Test item CC[C@]12C=CCN3CC[C@]4(C(=C(C(=O)OC)C1)Nc1cc(OC)c([C@@H]5[C@H]6O[C@H]6[C@@]6(CC)CC(C(=O)OC)=C7Nc8cc(O)ccc8[C@@]78CCN5[C@@H]68)cc14)[C@@H]32 ; MDA-MB-435 melanoma; reported growth was -53.9% (active)

Result for CN1C(=O)C(O)(CC(=O)c2cc3ccccc3oc2=O)c2ccccc21 (stereo unspecified) , tested on MDA-MB-435 melanoma, growth: 110% (inactive)

Here COc1ccccc1NC(=O)c1ccc(NC(=O)CCl)s1 was tested on MDA-MB-435 melanoma, and its growth came to 0.365% (active)

MDA-MB-435 melanoma growth of COc1cccc2nc(Nc3cccc(NC(=O)c4ccc(CN5CCN(C)CC5)c(C(F)(F)F)c4)c3)ccc12 is -98.1% (active)

growth on MDA-MB-435 melanoma for COc1ccc(OC)c(Cn2cc(C#N)c(N)c2C(=O)c2ccc(Br)cc2)c1 is 0.655% (active)

Entry Cn1cc(-c2cc(N)n3nc(-c4c[nH]c5ccc(F)cc45)cc3n2)c2cccnc21 , MDA-MB-435 melanoma data, growth value: -76.6% (active)

Log: MDA-MB-435 melanoma, molecule COc1c2c(c(Br)c3c1C(CCc1ccccc1)N(C)CC3)OCO2 (stereo unspecified) , growth = 13.9% (inactive)

MDA-MB-435 melanoma growth of CC1=C(C)C(=O)C(NCCN2CCOCC2)=C(Br)C1=O is -87.5% (active)

Noted growth for Nc1cc2ccccc2c(=O)n1NC(=O)c1ccc(Br)cc1 , tested on MDA-MB-435 melanoma: 103% (inactive)

// returns growth for O=C(Nc1ccc(-c2ccc3c(c2)NC(=O)/C3=C\c2ccc[nH]2)cc1)Nc1ccc(Cl)c(C(F)(F)F)c1 with MDA-MB-435 melanoma; value = 3.54% (active)

Response field growth (MDA-MB-435 melanoma) for item O=C(NN1C(=O)/C(=C/C=C/c2ccc([N+](=O)[O-])o2)SC1=S)c1ccc([N+](=O)[O-])cc1 : -86.9% (active)

Entry CN(C)c1nc(NCCNS(=O)(=O)c2ccc(C(=O)/C=C/c3ccc(C(F)(F)F)cc3)cc2)nc(N2CCOCC2)n1 under MDA-MB-435 melanoma had growth of -59.4% (active)

The reported growth value, MDA-MB-435 melanoma, for COc1cc(CNC(=O)C[C@H](C)CCC=C(C)C)ccc1OCc1cn(-c2ccc(Cl)cc2Cl)nn1 reads 98.2% (inactive)

For the molecule CN(CCSSCCN1CCOCC1)C(=O)Oc1cc2c(c3ccccc13)[C@H](CCl)CN2C(=O)c1cc2cc(OCCCN3CCC3)ccc2[nH]1 , the measured growth on MDA-MB-435 melanoma was -36.5% (active)

Result for COc1ccc(Nc2ncnc3sc4c(c23)CCN(Cc2ccccc2)C4)cc1 , tested on MDA-MB-435 melanoma, growth: 82.1% (inactive)

Field growth (MDA-MB-435 melanoma), entry CN(C)C(=O)c1cc(-c2ccc3ncnc(N4CCc5cc(F)c(Cl)cc54)c3c2)cnc1N : -58.5% (active)

Known value: MDA-MB-435 melanoma growth of the molecule Cc1nc2sccn2c1-c1nnc(SCc2ccccc2)o1 equals 97.4% (inactive)
